# System: CAKI-1
# testDetails: NCI tumour cell line growth inhibition, 48 h
Calls of active or inactive are those of the source. Rule as the data show it: active = GI50 up to about 1.1 µM and inactive = higher.
Returns: one label drawn from label 1 (active), label 0 (inactive)

Check out these entries, answers already filled in.
{"compound": "CCOc1ccc(/N=C\\c2cc(OC)c(OC)c(OC)c2)cc1", "assignedCategory": "label 0"}
{"compound": "COc1ccc2cc(C(=O)NCCc3ccccc3)ccc2c1OC", "assignedCategory": "label 0"}
{"compound": "CCOC(=O)NC(=O)c1cn(CCN2CCN(C(=O)CCCCCCCCCCNc3ncnc4[nH]cnc34)CC2)c(=O)[nH]c1=O", "assignedCategory": "label 0"}
{"compound": "O=C(/C=C/c1ccc(Cl)c(Cl)c1)Oc1ccc(/C=C2\\CCCCC2=O)cc1", "assignedCategory": "label 0"}
{"compound": "Cc1ccc(S[C@@H](C)[C@@](O)(CF)CN(Cc2ccccc2)C(=O)C(F)(F)F)cc1", "assignedCategory": "label 0"}

Hi, sorry to bother you, what did the test record for `NS(=O)(=O)c1ccc(/N=N/c2ncccc2O)cc1` ? label 0

Hi, sorry to bother you, what did the test record for `CCCc1c(OC)c(=O)c2c(OC)cc(OC)c3c4c(OC)cc(OC)c5c(=O)c(OC)c(CCC)c(c1c23)c54` ? label 0
